# experimental system: EGFR ins ASV (insertion of ASV between V769 and D770)
# protocol summary: Exon 20-Mutant-EGFR(V769_D770insASV) kinase assay (TR-FRET)
# Type: biochemical, human
# condition label: 2 mM ATP
measure name: EGFR ins ASV IC50 [mol] (mean) (mol)
Quick note: give the figure in mol, leave out the unit.

Worked cases, EGFR ins ASV IC50 [mol] (mean) given:
> print(dat)
                              record.smiles                       experimental.system                    measure.name  value.units  test.value
1  COc1c(F)cc(F)cc1Nc1c(-c2ccncc2OCC(C)(C)OC)[nH]c2c1C(=O)NCC2  EGFR ins ASV (insertion of ASV between V769 and D770)  EGFR ins ASV IC50 [mol] (mean)          mol    1.61e-10
2  COC(C)(C)COc1cnccc1-c1[nH]c2c(c1Nc1cccc(F)c1)C(=O)NCC2  EGFR ins ASV (insertion of ASV between V769 and D770)  EGFR ins ASV IC50 [mol] (mean)          mol    2.12e-10
3  CCOc1c(F)cccc1Nc1c(-c2ccncc2OCC(C)(C)OC)[nH]c2c1C(=O)NCC2  EGFR ins ASV (insertion of ASV between V769 and D770)  EGFR ins ASV IC50 [mol] (mean)          mol    9.43e-10
4  COCCOc1cnccc1-c1[nH]c2c(c1Nc1cc(F)cc(F)c1)C(=O)NCC2  EGFR ins ASV (insertion of ASV between V769 and D770)  EGFR ins ASV IC50 [mol] (mean)          mol    6.15e-09
5  COC(C)(C)COc1cnccc1-c1[nH]c2c(c1Nc1cccc(F)c1CC(F)F)C(=O)NCC2  EGFR ins ASV (insertion of ASV between V769 and D770)  EGFR ins ASV IC50 [mol] (mean)          mol    3.42e-10

Entry COC(C)(C)COc1cnccc1-c1[nH]c2c(c1Nc1cccc(F)c1O)C(=O)NCC2 , EGFR ins ASV IC50 [mol] (mean) reported as 6.34e-10

Entry O=C1NCCc2[nH]c(-c3ccncc3OCc3ccccc3)c(Nc3cccc(F)c3)c21 , EGFR ins ASV IC50 [mol] (mean) reported as 6.85e-09

Entry COCCOc1cnccc1-c1[nH]c2c(c1Nc1cccc(F)c1Br)C(=O)NCC2 , EGFR ins ASV IC50 [mol] (mean) reported as 2.18e-10

Entry COCCOc1cnccc1-c1[nH]c2c(c1Nc1cccc(F)c1C)C(=O)NCC2 , EGFR ins ASV IC50 [mol] (mean) reported as 3.22e-10

###

# System: Ba/F3-EGFR-insSVD cells
# protocol summary: Proliferation assay in BA/F3 (ins SVD) cells (Cell Titer-Glo)
# Type: cell-based
# condition label: Mus musculus, BaF3, 48 h, Table 10, plated without EGF
measure name: IC50
Note: state the figure and append the unit.

Worked cases, IC50 given:
> print(dat)
                                   compound  test.value
1  COC(C)(C)COc1cnccc1-c1[nH]c2c(c1Nc1cc(F)cc(F)c1OC(F)F)C(=O)NCC2 [Example 43]      117 nM
2  CCOC(C)(C)COc1cnccc1-c1[nH]c2c(c1Nc1cccc(F)c1OC)C(=O)NCC2 [Example 58]     18.6 nM
3  COc1c(Cl)cccc1Nc1c(-c2ccncc2OC[C@@H]2CCCN2C)[nH]c2c1C(=O)NCC2 [Example 48]     5.59 nM
4  COCCOc1cnccc1-c1[nH]c2c(c1Nc1ccccc1C(F)(F)F)C(=O)NCC2 [Example 47]      448 nM
5  COCCOc1cnccc1-c1[nH]c2c(c1Nc1cccc(F)c1CC(F)F)C(=O)NCC2 [Example 22]      116 nM

Proceed to the following item.
Entry Cc1c(Cl)cccc1Nc1c(-c2ccncc2OCCN(C)C)[nH]c2c1C(=O)NCC2 [Example 52] , IC50 reported as 29.1 nM

###

# Test system: Ba/F3-EGFR-insSVD cells
# protocol summary: Proliferation assay in BA/F3 (ins SVD) cells (Cell Titer-Glo)
# Assay type: cell-based
# condition label: Mus musculus, BaF3, 48 h, Table 10, plated without EGF
pIC50: −log10 of the molar value.
Record Criterion met whenever pIC50 is at 7 or higher; record Criterion not met when lower.

> print(dat)
                                   compound      experimental.system  assigned.label
1  COc1c(F)cccc1Nc1c(-c2ccncc2OCCN(C)C)[nH]c2c1C(=O)NCC2 [Example 53]  Ba/F3-EGFR-insSVD cells   Criterion met
2  COC(C)(C)COc1cnccc1-c1[nH]c2c(c1Nc1cc(F)cc(F)c1)C(=O)NCC2 [Example 10]  Ba/F3-EGFR-insSVD cells   Criterion met
3  COCCOc1cnccc1-c1[nH]c2c(c1Nc1cccc(Cl)c1Cl)C(=O)NCC2 [Example 46]  Ba/F3-EGFR-insSVD cells   Criterion met

# evaluate next
Threshold query (pIC50 >= 7) on CCOc1c(F)cccc1Nc1c(-c2ccncc2OCC(C)(C)OC)[nH]c2c1C(=O)NCC2 [Example 26] Criterion not met

###

# System: Ba/F3-EGFR-insSVD cells
# protocol summary: Proliferation assay in BA/F3 (ins SVD) cells (Cell Titer-Glo)
# Format: cell-based
# condition label: Mus musculus, BaF3, Table 10, plated without EGF, 48 h
Some compounds, each annotated with its measured IC50.
Quick note: give the figure in nM, leave out the unit.

> print(dat)
                              record.smiles  test.value
1  Cc1c(F)cc(F)cc1Nc1c(-c2ccncc2OC[C@@H]2CCCN2C)[nH]c2c1C(=O)NCC2         107
2  CN1CCC[C@H]1COc1cnccc1-c1[nH]c2c(c1Nc1cccc(F)c1)C(=O)NCC2        69.5

Proceed to the following item.
Entry COc1c(F)cccc1Nc1c(-c2ccncc2OCC(C)(C)N2CCOCC2)[nH]c2c1C(=O)NCC2 , IC50 reported as 98

###

Target or system Bub1 (Homo sapiens (Human)); recorded quantity pIC50.
Here pIC50 is given on a logarithmic scale as minus log10 of the concentration in mol/L.

Worked cases, pIC50 given:
> print(dat)
                              record.smiles  measure.name  test.value
1  CCOc1c(F)cccc1Nc1c(-c2ccncc2OCCOC)[nH]c2c1C(=O)NCC2         pIC50        6.64
2  COC(C)(C)COc1cnccc1-c1[nH]c2c(c1Nc1cccc(F)c1CC(F)F)C(=O)NCC2         pIC50        7.17

Proceed to the following item.
Entry O=C1NCCc2[nH]c(-c3ccncc3OCc3ccccc3)c(Nc3cccc(F)c3)c21 , pIC50 reported as 7.32

###

Some molecules, each annotated with its measured IC50.
# experimental system: EGFR ins SVD (insertion of SVD between D770 and N771) (Homo sapiens, UniProt P00533, INS767SVD)
# Sequence (P00533 with tags, fused parts or gaps INS767SVD limits assumed): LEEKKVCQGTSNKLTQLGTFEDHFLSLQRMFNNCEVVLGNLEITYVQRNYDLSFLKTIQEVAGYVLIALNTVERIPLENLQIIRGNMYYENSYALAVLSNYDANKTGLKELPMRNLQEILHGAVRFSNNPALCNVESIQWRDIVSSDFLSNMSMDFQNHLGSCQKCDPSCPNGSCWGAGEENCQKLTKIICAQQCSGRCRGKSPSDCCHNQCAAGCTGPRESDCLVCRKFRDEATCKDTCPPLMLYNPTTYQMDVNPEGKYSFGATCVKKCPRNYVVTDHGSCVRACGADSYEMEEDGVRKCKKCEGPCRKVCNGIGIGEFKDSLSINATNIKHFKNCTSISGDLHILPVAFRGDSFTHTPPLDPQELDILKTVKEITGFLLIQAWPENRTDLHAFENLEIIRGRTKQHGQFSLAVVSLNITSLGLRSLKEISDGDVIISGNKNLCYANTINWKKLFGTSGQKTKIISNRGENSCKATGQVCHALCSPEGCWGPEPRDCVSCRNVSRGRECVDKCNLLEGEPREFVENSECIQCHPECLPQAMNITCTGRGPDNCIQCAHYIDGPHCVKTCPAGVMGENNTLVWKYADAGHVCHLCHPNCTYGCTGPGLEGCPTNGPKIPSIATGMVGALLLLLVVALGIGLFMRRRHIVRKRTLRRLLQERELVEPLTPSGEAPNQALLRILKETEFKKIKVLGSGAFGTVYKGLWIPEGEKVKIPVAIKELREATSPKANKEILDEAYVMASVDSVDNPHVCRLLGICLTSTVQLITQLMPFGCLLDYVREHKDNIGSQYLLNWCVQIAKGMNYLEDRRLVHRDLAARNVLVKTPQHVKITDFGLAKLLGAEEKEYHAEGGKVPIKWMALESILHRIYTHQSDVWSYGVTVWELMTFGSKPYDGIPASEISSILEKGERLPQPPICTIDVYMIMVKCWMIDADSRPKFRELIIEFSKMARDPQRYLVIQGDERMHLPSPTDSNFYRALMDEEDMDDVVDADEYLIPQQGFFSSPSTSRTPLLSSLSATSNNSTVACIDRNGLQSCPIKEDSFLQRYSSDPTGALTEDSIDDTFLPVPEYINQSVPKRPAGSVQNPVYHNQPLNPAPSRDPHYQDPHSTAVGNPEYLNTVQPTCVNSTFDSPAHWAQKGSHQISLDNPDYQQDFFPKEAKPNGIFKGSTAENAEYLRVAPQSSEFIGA
# protocol summary: Exon 20-Mutant-EGFR(D770_N771insSVD) kinase assay (TR-FRET)
# Assay type: biochemical
# condition label: Table 9; read-out: mutEGFR (D770_N771insSVD) kinase assay IC50
Quick note: give the figure in pM, leave out the unit.

> print(dat)
                                   molecule  value.units  test.value
1  Cc1c(F)cc(F)cc1Nc1c(-c2ccncc2OC[C@@H]2CCCN2C)[nH]c2c1C(=O)NCC2 [Example 51]           pM         732
2  CN(C)CCOc1cnccc1-c1[nH]c2c(c1Nc1cccc(F)c1OC(F)F)C(=O)NCC2 [Example 64]           pM         443
3  COc1c(F)cccc1Nc1c(-c2ccncc2OCC(C)(C)O)[nH]c2c1C(=O)NCC2 [Example 72]           pM         144

Entry COc1c(Cl)cccc1Nc1c(-c2ccncc2OC[C@@H]2CCCN2C)[nH]c2c1C(=O)NCC2 [Example 48] , IC50 reported as 358

Entry CN1CCC[C@H]1COc1cnccc1-c1[nH]c2c(c1Nc1cccc(F)c1)C(=O)NCC2 [Example 8] , IC50 reported as 324

###

# experimental system: EGFR ins ASV (insertion of ASV between V769 and D770)
# protocol summary: Exon 20-Mutant-EGFR(V769_D770insASV) kinase assay (TR-FRET)
# Format: biochemical, human
# condition label: 2 mM ATP
Some compounds, each annotated with its measured EGFR ins ASV IC50 [mol] (mean).
Quick note: give the figure in mol, leave out the unit.

Worked cases, EGFR ins ASV IC50 [mol] (mean) given:
> print(dat)
                              record.smiles  test.value
1  COCCOc1cnccc1-c1[nH]c2c(c1Nc1ccc(F)c(F)c1OC)C(=O)NCC2    2.69e-08
2  COCCOc1cnccc1-c1[nH]c2c(c1Nc1cc(F)cc(F)c1OC)C(=O)NCC2    2.09e-10

Proceed to the following item.
Fill in: EGFR ins ASV (insertion of ASV between V769 and D770) EGFR ins ASV IC50 [mol] (mean) for COCCOc1cnccc1-c1[nH]c2c(c1Nc1ccccc1CC(F)F)C(=O)NCC2 = 1.34e-09

Hello, the source for this data is patent US11339157B1, in case you need it.
